- assay_comment: chemical genetic growth profiling, strain panel (AID 1159580);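 note: tested at 20 µM; growth read once vehicle control cultures reached saturation at 30 °C; 1 = growth at the plate median or of vehicle wells; lower values mean less growth of the strain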
- test_context: S. cerevisiae deletion strains, growth OD, locus YLR221C, strain rsa3, hits give low values
In all, about 5,500 compounds went through this assay and about 2,000 (36%) were called active. About 18% were inconclusive and are not listed. The list shows a part of the results.
# normalized growth annotations
Response field accepts a number only; no unit should be typed.

# annotated cases, reported normalized growth shown
| compound | normalized growth |
| --- | --- |
| CN(N=O)C(=O)N[C@@H]1[C@@H](O)[C@H](O)[C@@H](CO)O[C@@H]1O | 0.99 |
| COc1cc([C@@H]2c3cc4c(cc3C(O[C@@H]3O[C@@H]5CO[C@@H](c6cccs6)OC5[C@H](O)[C@H]3O)C3COC(=O)[C@@H]32)OCO4)cc(OC)c1O (stereo partly specified) | 1.03 |
| COc1cc2c3cc1Oc1cc(ccc1O)C[C@@H]1c4c(cc(OC)c(O)c4Oc4ccc(cc4)C[C@@H]3N(C)CC2)CC[N+]1(C)C | 0.966 |
| COc1c2c(cc3c1OCO3)CC[N+](C)=C2 | 1.04 |
| Cn1nnnc1SCC1=C(C(=O)O)N2C(=O)C(NC(=O)C(O)c3ccccc3)C2SC1 (stereo unspecified) | 0.98 |

Problem: Quick one: normalized growth for "O=c1cc(-c2ccc(O)c(O)c2)oc2ccccc12" ?
Solution: 0.927

Problem: Quick one: normalized growth for "O=c1[nH]c2cc(Cl)c(Cl)cc2[nH]c1=O" ?
Solution: 0.955

Problem: Quick one: normalized growth for "CN(C)CC/C=C1/c2ccccc2COc2ccccc21" ?
Solution: 1.01

Problem: Quick one: normalized growth for "COc1cc2c(cc1OC)-c1cc3ccc(OC)c(OC)c3c[n+]1CC2" ?
Solution: 1.01

Problem: Quick one: normalized growth for "O=C(O)c1nc2cc(Cl)c(Cl)cc2[nH]c1=O" ?
Solution: 1
